Measured log10 of Ki on Cathepsin K (Rattus norvegicus) follows.
Sequence (O35186 whole entry): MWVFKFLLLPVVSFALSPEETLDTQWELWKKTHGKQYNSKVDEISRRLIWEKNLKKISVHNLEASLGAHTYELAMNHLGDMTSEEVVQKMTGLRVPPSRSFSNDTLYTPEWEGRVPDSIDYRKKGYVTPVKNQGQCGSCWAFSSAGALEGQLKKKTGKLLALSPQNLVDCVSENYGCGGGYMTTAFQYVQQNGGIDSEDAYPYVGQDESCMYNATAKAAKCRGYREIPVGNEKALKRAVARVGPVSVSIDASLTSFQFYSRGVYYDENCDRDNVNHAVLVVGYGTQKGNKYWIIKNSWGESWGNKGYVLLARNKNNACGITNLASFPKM
Plainly stated, the numbers are log10 of Ki given in nM.

Answered cases to consult:
INSERT INTO results (line_notation, system, reported_measurement) VALUES
  ('CC(C)C[C@H](NC(=O)c1cc2ccccc2o1)C(=O)N[C@@H]1CC[C@H](C)N(S(=O)(=O)c2ccccn2)CC1=O', 'Cathepsin K (Rattus norvegicus)', 2.90),
  ('CC(C)C[C@H](NC(=O)c1cc2ccccc2o1)C(=O)N[C@H]1CC[C@H](C)N(S(=O)(=O)c2ccccn2)CC1=O', 'Cathepsin K (Rattus norvegicus)', 2.83),
  ('CC(C)C[C@H](NC(=O)c1cc2ccccc2o1)C(=O)N[C@@H]1CC[C@@H](C)N(S(=O)(=O)c2ccccn2)CC1=O', 'Cathepsin K (Rattus norvegicus)', 2.63),
  ('CC(C)C[C@H](NC(=O)c1cc2ccccc2o1)C(=O)N[C@H]1CC[C@@H](C)N(S(=O)(=O)c2ccccn2)CC1=O', 'Cathepsin K (Rattus norvegicus)', 0.90);

input: Find the recorded log10 of Ki belonging to `CC(C)C[C@H](NC(=O)c1cc2ccccc2o1)C(=O)N[C@H]1C[C@H](C)CN(S(=O)(=O)c2ccccn2)CC1=O` and report it.
output: 1.86
